Molecular target: Progesterone receptor (Homo sapiens) (UniProt P06401)
Sequence (P06401 whole entry, looked up): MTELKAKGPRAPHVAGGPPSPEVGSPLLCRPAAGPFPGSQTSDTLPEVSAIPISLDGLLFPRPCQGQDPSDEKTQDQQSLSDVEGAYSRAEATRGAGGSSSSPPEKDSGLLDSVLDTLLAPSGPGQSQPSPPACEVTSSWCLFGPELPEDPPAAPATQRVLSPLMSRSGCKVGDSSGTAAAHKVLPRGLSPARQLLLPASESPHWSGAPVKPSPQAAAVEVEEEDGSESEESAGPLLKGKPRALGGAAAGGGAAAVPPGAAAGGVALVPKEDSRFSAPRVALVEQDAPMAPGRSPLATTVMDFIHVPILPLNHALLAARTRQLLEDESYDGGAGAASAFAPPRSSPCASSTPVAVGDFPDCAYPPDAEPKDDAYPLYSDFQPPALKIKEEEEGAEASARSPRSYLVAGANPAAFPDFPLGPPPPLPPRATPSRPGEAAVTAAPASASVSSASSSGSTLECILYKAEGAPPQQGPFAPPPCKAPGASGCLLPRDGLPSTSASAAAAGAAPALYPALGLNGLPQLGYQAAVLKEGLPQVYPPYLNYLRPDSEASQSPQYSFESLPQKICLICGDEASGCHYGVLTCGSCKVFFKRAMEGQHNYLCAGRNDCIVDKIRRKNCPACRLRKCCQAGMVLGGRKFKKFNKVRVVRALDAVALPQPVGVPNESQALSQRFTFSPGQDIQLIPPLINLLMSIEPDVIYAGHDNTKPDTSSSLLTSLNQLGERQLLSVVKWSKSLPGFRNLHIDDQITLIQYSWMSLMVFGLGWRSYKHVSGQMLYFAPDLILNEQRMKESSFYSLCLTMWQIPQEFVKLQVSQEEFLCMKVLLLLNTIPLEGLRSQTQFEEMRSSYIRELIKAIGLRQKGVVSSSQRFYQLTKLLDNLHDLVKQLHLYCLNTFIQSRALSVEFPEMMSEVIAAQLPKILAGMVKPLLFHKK
Assay: qHTS assay to identify small molecule antagonists of the progesterone receptor (PR) signaling pathway (AID 1346795); note: potency is the fitted concentration of half-maximal effect
Conditions: PR-UAS-bla HEK293T, beta-lactamase FRET ratio, 16 h; series mostly up to 92.4 µM
Inconclusive results are not listed. The source made the active and inactive calls. Calls come from the whole dose curve; as a rule, active = well fitted inhibition curve with a large enough effect in the signal ratio in the repeat runs (not every such curve was filed as active); inconclusive = weak or mixed curves; inactive = flat fitted curve, though single readings scatter; the % refers to the signal ratio.
property_label: Potency

Example results:
compound: N#Cc1ccc(Cl)cc1
Potency: inactive
//
compound: C(=NC1CCCCC1)=NC1CCCCC1
Potency: inactive
//
compound: NNC(=O)c1cccnc1
Potency: inactive
//
compound: CS/C(C)=N/OC(=O)N(C)SN(C)C(=O)O/N=C(\C)SC
Potency: inactive

Name the recorded Potency for C=C(C#N)CCC#N . inactive

Report Potency for O=C1CN=C(c2ccccc2)c2cc(Cl)ccc2N1CC1CC1 please. 11.4 µM (active)

// Potency lookup, key: CCCCN(N=O)C(=N)N[N+](=O)[O-] inactive

meta.source: PubChem BioAssay (Tox21)
